RUN_DESCRIPTION: Cytotoxicity against African green monkey Vero cells infected in Pichinde virus AN 4763 by visual analysis
Type: toxicity, cell-based
EXPERIMENTAL_CONTEXT: chlorocebus sabaeus, Vero cells infected with Pichinde virus AN 4763
RECORDED_ENDPOINT: CC50 (µM)
Give the number; µM is assumed, so skip it.

What value of measured CC50 is listed for Nc1nc(F)cc2c1ncn2C1=C[C@H](CO)[C@@H](O)[C@H]1O ?
46

====

Items are presented alongside their recorded EC50.
System: Rift Valley fever virus
RUN_DESCRIPTION: Antiviral activity against Rift Valley fever virus MP-12 infected in African green monkey Vero 76 cells by visual analysis
Type: functional, organism-based
EXPERIMENTAL_CONTEXT: MP-12, Vero 76
Give the number; µM is assumed, so skip it.

* NC(=O)c1ncn([C@@H]2O[C@H](CO)[C@@H](O)[C@H]2O)n1 | 49

We now examine a further compound.
Request - read-out EC50 | tested on Rift Valley fever virus | compound Nc1nc(F)cc2c1ncn2C1=C[C@H](CO)[C@@H](O)[C@H]1O
22.1

====

Items are presented alongside their recorded selectivity ratio.
RUN_DESCRIPTION: Selectivity index, ratio of CC50 for cytotoxicity against MDCK cells infected with influenza A virus California/7/2009(H1N1) to EC50 for antiviral activity against influenza A virus California/7/2009(H1N1) infected in MDCK cells
Type: toxicity, cell-based
EXPERIMENTAL_CONTEXT: dog; read-out: Ratio CC50/EC50

• Nc1ncc(F)c2c1ncn2C1=C[C@H](CO)[C@@H](O)[C@H]1O = > 1000

We now examine a further molecule.
What value of measured selectivity ratio is listed for NC(=O)c1ncn([C@@H]2O[C@H](CO)[C@@H](O)[C@H]2O)n1 ?
> 670

====

RUN_DESCRIPTION: Cytotoxicity against African green monkey Vero 76 cells infected with Rift Valley fever virus MP-12 by visual analysis
Assay type: toxicity, cell-based
EXPERIMENTAL_CONTEXT: chlorocebus sabaeus
Items are presented alongside their recorded CC50.

* NC(=O)c1ncn([C@@H]2O[C@H](CO)[C@@H](O)[C@H]2O)n1 | > 4090 µM

We now examine a further molecule.
What value of measured CC50 is listed for Nc1nc(F)cc2c1ncn2C1=C[C@H](CO)[C@@H](O)[C@H]1O ?
114 µM

====

Items are presented alongside their recorded selectivity ratio.
RUN_DESCRIPTION: Selectivity index, ratio of CC50 for cytotoxicity against African green monkey Vero 76 cells by neutral red dye based analysis to EC50 for antiviral activity against Measles virus CC infected in African green monkey Vero 76 cells by neutral red dye based analysis
Format: toxicity, cell-based
EXPERIMENTAL_CONTEXT: read-out: Ratio CC50/EC50
Kindly provide the number alone.

* Nc1ccn([C@@H]2O[C@H](CO)[C@@H](O)[C@H]2F)c(=O)n1 | 69

We now examine a further compound.
What value of measured selectivity ratio is listed for Nc1nc(F)cc2c1ncn2C1=C[C@H](CO)[C@@H](O)[C@H]1O ?
91

====

RUN_DESCRIPTION: Cytotoxicity against African green monkey Vero cells infected with Tacaribe virus TRVL11573 by neutral red dye based analysis
Type: toxicity, cell-based
EXPERIMENTAL_CONTEXT: chlorocebus sabaeus
Items are presented alongside their recorded CC50.

• NC(=O)c1ncn([C@@H]2O[C@H](CO)[C@@H](O)[C@H]2O)n1 [RIBAVIRIN] = 3930 µM

What value of measured CC50 is listed for Nc1nc(F)cc2c1ncn2C1=C[C@H](CO)[C@@H](O)[C@H]1O ?
50 µM
